Field: peptide exchange yield. Provide a value for each of the binders that follow.
Target: T1, HLA-B*44:02 (human)
T1 construct: Peptide-receptive MHC class I monomer made by UV cleavage of a UV-sensitive ligand
Assay: UV ligand exchange ELISA; exchange yield grade

Below, 4 binders whose answers are already recorded.
{"Binder": "AQNLSIIQY", "peptide exchange yield": "20 to 50%"}
{"Binder": "GELLGRQSF", "peptide exchange yield": "50 to 75%"}
{"Binder": "REYNEYENI", "peptide exchange yield": "20 to 50%"}
{"Binder": "GEGAYGKVF", "peptide exchange yield": "> 75%"}

Field: peptide exchange yield. Fill in for each record below.
1. SESLPKEAF
2. NEIEHIPVW
3. SEDLAVHLY

## Result
1. 20 to 50%
2. 50 to 75%
3. 20 to 50%
